Give composite z-score for every item shown.
Test system: Wnt5a (protein binding on small-molecule microarray)
Test: small molecules binding Wnt5a protein – biophysical, small-molecule microarray, 635/667 nm fluorescence, primary screen (AID 1142);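 further: fluorescence read at 667 nm with signal to noise per printed feature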
Details: 635 nm fluorescence, higher = more signal
Give bare numbers.

Some solved entries appear below for comparison.
CC(C)[Si](C#CCCCC#N)(O[C@H](c1ccccc1)c1cn(Cc2ccccc2)nn1)C(C)C | 0.125
CN(C)C(=O)[C@]1(CCC(=O)OC(C)(C)C)N=C(c2ccc(OCCCO)cc2)O[C@@H]1c1ccccc1CN=[N+]=[N-] | 1.44

Record composite z-score per entry; entries follow.
1. CCOC(=O)C[C@H]1[C@H](OC(=O)c2ccc(C(=O)c3ccccc3)cc2)[C@@H](NC(=O)c2ccc3ccccc3n2)c2cc(OCCCO)ccc2N1C(=O)Cc1ccc(OC)cc1
2. CC(C)C(CO)N1C(=O)[C@@H]2C3C(=O)OCCC/C=C\[C@H]3OC23C=CCN(c2ccc4ccccc4c2)C(=O)[C@@H]13 (some centres undefined)
3. C=CCOC(=O)[C@@]1(Cc2ccccc2)C[C@H]2CO[C@H](c3ccc(OC)cc3)N2C1=O
4. [N-]=[N+]=NCc1ccccc1[C@H]1OC(c2ccc(OCCCO)cc2)=N[C@@]1(Cc1ccccc1N=[N+]=[N-])C(=O)NCC(O)CO (some centres undefined)
5. CCCCN1CC=CC23O[C@@H]4/C=C\CCC(C)OC(=O)C4[C@H]2C(=O)N(CCCO)[C@@H]3C1=O (some centres undefined)
6. CCCC#C[Si](O[C@H](CC)c1cn([C@H](C)c2ccccc2)nn1)(C(C)C)C(C)C
7. CCCC=C(CCC)[C@@H](NC(=O)C(C)(C)C)c1ccc(C(=O)OC)cc1
8. CCOC(=O)C[C@H]1[C@H](OC(=O)Cc2ccc3c(c2)OCO3)[C@@H](NC(=O)C2CCCCC2)c2cc(OCCCO)ccc2N1C(=O)c1ccccc1

Reply text:
1. -0.126
2. -0.4
3. -0.0728
4. 0.462
5. -0.636
6. 0.0759
7. 0.0146
8. -0.0729

###

System: Chordin-like protein 2 (CHRDL2)
Experiment: compounds binding chordin-like 2 – biochemical, small-molecule microarray, 635 nm fluorescence, primary screen (AID 1126);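 further: printed compound slides probed with Chrdl2 protein at 4 µg/mL for 1 h at 4 C; score merges 667 nm emission intensity with signal to noise over three replicate slides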
Settings: fluorescence 635 nm, higher = more signal
Field: composite z-score. Provide a value for each of the compounds that follow.
One number for each entry.

Recorded composite z-score, per entry:
C#CCN(Cc1ccccc1Br)[C@H](/C=C/c1ccccc1)[C@@H](O)Cc1ccccc1 | 0.129
CO[C@H]1O[C@H](CO)[C@@H](OC(=O)CCc2ccccc2)[C@@H]2OC(=O)[C@@H](Cc3ccccc3)C/C=C/C[C@H](Cc3ccccc3)C(=O)O[C@@H]12 | 0.0642
CC(C)NC(=O)[C@@]1(c2ccc([N+](=O)[O-])cc2)CC(=O)N(C2CCCCC2)[C@@H]1c1ccc(CO)cc1 | -0.0413
COc1cc(NN2C(C(O)c3ccco3)C=CC3C(=O)N(C)C(=O)C32)cc(OC)c1OC (stereo not given) | 0.861

Please look at the items below and tell me composite z-score for each one, in order.
1. COc1ccc(CCNC(=O)[C@@]2(Sc3ccc(C)cc3)CC(=O)N(Cc3ccccc3C(F)(F)F)[C@@H]2c2ccc(CO)cc2I)cc1
2. CCN(CC)c1ccc(N2CC=CC34O[C@@H]5/C=C\CCCOC(=O)C5[C@H]3C(=O)N(C(C)CO)[C@@H]4C2=O)cc1 (stereo not given in full)
3. [N-]=[N+]=Nc1ccccc1C[C@@]1(C(=O)NCCN2CCOCC2)N=C(c2ccc(OCCCO)cc2)O[C@@H]1c1ccccc1N=[N+]=[N-]
4. CN(C)C(=O)[C@]1(Cc2ccccc2CN=[N+]=[N-])N=C(c2ccc(OCCCO)cc2)O[C@@H]1c1ccccc1

Reply text:
[-0.865, 0.259, -0.198, -1.08]

For the 6 compounds below, give their composite z-score values.
1. NCCCCCCNC(=O)[C@@H]1C[C@@H]2C(=O)N[C@@H](CCCCN)C(=O)N2[C@@H]1c1ccc(O)cc1
2. O=C1O[C@@H](c2ccccc2)[C@@H](c2ccccc2)N2[C@@H](c3ccc(OCCO)cc3)[C@]3(C(=O)Nc4ccc(C#CC5=CCCCC5)cc43)[C@@H](C(=O)NC[C@H](O)c3ccccc3)[C@H]12
3. COc1cc2c(cc1O)C=[N+](Cc1sc3ccccc3c1Cl)CC2
4. CN1C(=O)C2C=CC(C(O)c3cccn3C)N(Nc3ccc([N+](=O)[O-])cc3[N+](=O)[O-])C2C1=O (stereo not given)
5. O=C1OCCC=C[C@H]2OC34C=CCN(Cn5nnc6ccccc65)C(=O)[C@H]3N(CCCO)C(=O)[C@@H]4C12 (stereo not given in full)
6. CCCC[C@@H](O)C1=C(COc2ccccc2)C[C@H]2C(=O)N(Cc3ccccc3)C(=O)[C@H]2[C@H]1CO

Reply text:
[0.667, 1.16, 0.496, -0.248, -0.433, 0.228]

Noted for "O=C(NCCN1CCOCC1)[C@@H]1c2ccccc2C(=O)N(Cc2ccccc2Cl)[C@H]1c1ccc(CO)cc1" : its composite z-score reads -0.761
